- System: PC-3 prostate
- Protocol Description: NCI tumour cell line growth inhibition, 48 h; in the data active means GI50 below about 0.43 µM; inactive means the rest
Please reply with one of these outcomes: Yes = active, No = inactive

Solved cases (3 shown):
CCOC(=O)Cn1c(C)c(/C=N/NC(=O)c2cc3c(ccc4ccccc43)o2)c2ccccc21
Yes
CC(=O)OC1CCC2(C)C(CCC3C4CC=C(C(C)=O)C4(C)OC(=O)CC32)C1 (centres undefined)
No
Nc1c(C(=O)c2cccc(CCC3(O)CCCC3)c2)cnn1-c1ccc(F)cc1
No

Note: attention shifts to another entry.
Data request: Which outcome was entered for the compound `CCOC(=O)c1ccc(Nc2sc(C(=O)c3cccc([N+](=O)[O-])c3)c(N)c2C#N)cc1` in this test?
Data returned: Yes
